PROTOCOL_SUMMARY: NCI Yeast Anticancer Drug Screen. Data for the mec2-1 strain (AID 157)
EXPERIMENTAL_PARAMETERS: S. cerevisiae mec2-1 strain, at 50.0 µM (retest, dose inferred, filed as 5.0)
The panel holds about 79,000 compounds, 15% with a hit somewhere; the sample as a whole holds those more often. Calls of active or inactive are those of the source. No stated cut-off is given here; in the data, active means growth inhibition above about 70%; inactive means the rest.
In this exercise, the only acceptable responses are active, inactive

# example entries with known answers
| COMPOUND | ASSIGNED_LABEL |
| --- | --- |
| O=C(Nc1ccccc1)c1ccc([N+](=O)[O-])o1 | active |
| CCCC(=O)NCCNC(=O)CCC | inactive |
| O=C1Nc2c(Cl)cc(Cl)cc2/C1=N/N=C/c1ccccc1O | inactive |
| Nc1cc(S(=O)(=O)O)cc2cc(S(=O)(=O)O)c(N=Nc3ccccc3)c(O)c12 | inactive |
| CCCCCCCCCCC(C(=O)OCCCC)P(=O)(OCCCC)OCCCC (stereo not given) | active |

### Prompt Which outcome did this test record for the compound Nc1ccc(S(=O)(=O)Nc2ccccc2)cc1 ?
### Response inactive

### Prompt Which outcome did this test record for the compound CCN(CC)c1c(C(=O)/C=C/c2ccc(Cl)cc2)c(-c2ccccc2)nn(C)c1=O ?
### Response active

### Prompt Which outcome did this test record for the compound O=S(=O)(NC1CCCCC1)c1ccc2c(c1)OCCOCCOCCOCCO2 ?
### Response inactive

### Prompt Which outcome did this test record for the compound CC(NNC(=S)N1CCCC1)c1ccccn1 (stereo not given) ?
### Response active

---

PROTOCOL_SUMMARY: NCI Yeast Anticancer Drug Screen. Data for the cln2 rad14 strain (AID 165);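 further: 0% = growth equal to vehicle treated cultures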
EXPERIMENTAL_PARAMETERS: S. cerevisiae cln2 rad14 strain, at 50.0 µM (retest, dose inferred, filed as 5.0), stronger effect = higher value
Compounds without any hit were thinned out: in the full panel of roughly 79,000, 15% have a hit.
OBSERVED_PROPERTY: growth inhibition (%)
# unit: % | format: bare number

### Prompt Could you share which growth inhibition value was measured for O=S(=O)(NC1CCCCC1)c1ccc2c(c1)OCCOCCOCCOCCO2 ?
### Response 39

### Prompt Could you share which growth inhibition value was measured for Cc1ccnc(NCCN(C)C)c1 ?
### Response 1

### Prompt Could you share which growth inhibition value was measured for FC(F)(F)COP1(OCC(F)(F)F)=NP(OCC(F)(F)F)(OCC(F)(F)F)=NP(c2ccccc2)(c2ccccc2)=N1 ?
### Response -6

### Prompt Could you share which growth inhibition value was measured for Cc1ccc(NC(=S)SCc2ccc(Cl)cc2)cc1Br ?
### Response 99

### Prompt Could you share which growth inhibition value was measured for C=C(CS(=O)(=O)c1ccccc1)[P+](c1ccccc1)(c1ccccc1)c1ccccc1 ?
### Response 81

### Prompt Could you share which growth inhibition value was measured for CCC(C)n1c(C)nc2c(N)cc(C(F)(F)F)cc21 (configuration not stated) ?
### Response 8

### Prompt Could you share which growth inhibition value was measured for COc1ccc2nc3cc(Cl)ccc3c(Nc3ccc(S(N)(=O)=O)cc3)c2c1 ?
### Response 3

---

PROTOCOL_SUMMARY: NCI Yeast Anticancer Drug Screen. Data for the mec2-1 strain (AID 157)
EXPERIMENTAL_PARAMETERS: S. cerevisiae mec2-1 strain, at 5.0 µM (retest, dose inferred, filed as 0.5), stronger effect = higher value
The panel holds about 79,000 compounds, 15% with a hit somewhere; the sample as a whole holds those more often.
# maps each entry to its growth inhibition
# unit: % | format: bare number

Worked cases, growth inhibition given:
| COMPOUND | growth inhibition / % |
| --- | --- |
| CCN(CC)CCCC(C)Nc1cc(O)c2c(c1O)C(=O)c1ccccc1C2=O (configuration not stated) | 95 |
| COc1c2c(c(C)c3ccc4ccccc4c13)CCN=C2 | -4 |
| CC(C)OC(=O)CCCCCC1CCCCC1 | -2 |
| CC(C)c1ccc(O)c(O)c(=O)c1 (tested in a mixture with another compound) | 100 |
| CS(=O)(=O)OCCN(CCOS(C)(=O)=O)c1ccc(C=Nc2cc(Cl)c(O)c(Cl)c2)c(Cl)c1 | 42 |

### Prompt Could you share which growth inhibition value was measured for O=C(c1ccc([N+](=O)[O-])cc1)C(Br)C(Br)c1ccnc2ccccc12 (configuration not stated) ?
### Response 23

### Prompt Could you share which growth inhibition value was measured for O=C(O)/C=C/C(=O)c1ccc(O)cc1 ?
### Response 9

### Prompt Could you share which growth inhibition value was measured for COC(=O)/C=C/c1cccc[n+]1[O-] ?
### Response 3

### Prompt Could you share which growth inhibition value was measured for COc1cc(/C=C2/N=C(c3ccccc3)N(C3=NNC4(C(=O)N3)c3ccccc3-c3ccccc34)NC2=O)ccc1O ?
### Response -1

### Prompt Could you share which growth inhibition value was measured for CCOCCNCc1ccc(Cl)c(Cl)c1 ?
### Response -47

### Prompt Could you share which growth inhibition value was measured for Oc1ccc(C2SC(c3ccc(O)cc3)SC(c3ccc(O)cc3)S2)cc1 (configuration not stated) ?
### Response -1

### Prompt Could you share which growth inhibition value was measured for O=C(O)c1nnsc1-c1ccc(-c2snnc2C(=O)O)cc1 ?
### Response -2

### Prompt Could you share which growth inhibition value was measured for CC(O[Si](C)(C)C(C)(C)C)C(=O)Sc1ccccn1 (configuration not stated) ?
### Response -9

### Prompt Could you share which growth inhibition value was measured for CCc1c(-c2ccccc2)c(CN2CCCCC2)c2ccccn12 ?
### Response 13

### Prompt Could you share which growth inhibition value was measured for O=C(O)C(=O)Cc1ccc(O)cc1 ?
### Response -20

### Prompt Could you share which growth inhibition value was measured for O=c1cc(-c2cccc(OCc3ccccc3)c2)[nH]c2cc3c(cc12)OCO3 ?
### Response 16

### Prompt Could you share which growth inhibition value was measured for CN(C)c1ncnc2c1ncn2C ?
### Response 15

### Prompt Could you share which growth inhibition value was measured for Cc1ccccc1CN(C)CCO ?
### Response -1

### Prompt Could you share which growth inhibition value was measured for CCC(=O)C(=O)CC1CC(c2ccco2)=Nc2ccccc2S1 (configuration not stated) ?
### Response 13

### Prompt Could you share which growth inhibition value was measured for O=[N+]([O-])c1ccc(O)c(/C=N\NC(=S)Nc2ccc3cn[nH]c3c2)c1 ?
### Response 1

### Prompt Could you share which growth inhibition value was measured for CC1=Nc2ccccc2C1C(Cc1ccccc1N)c1c(C)[nH]c2ccccc12 (configuration not stated) ?
### Response 16

### Prompt Could you share which growth inhibition value was measured for CN(C)C(=S)N1C(=S)N(c2ccccc2)C(=Nc2ccccc2)C1=Nc1ccccc1 ?
### Response -9

### Prompt Could you share which growth inhibition value was measured for O=C(NC(=O)C(F)(F)F)Nc1ccc(Cl)cc1 ?
### Response -2

### Prompt Could you share which growth inhibition value was measured for CN(C)CCCNc1cc(O)c2c(c1O)C(=O)c1ccccc1C2=O ?
### Response 18

---

PROTOCOL_SUMMARY: NCI Yeast Anticancer Drug Screen. Data for the rad50 strain (AID 155);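 further: 0% = growth of vehicle-only cultures of the same strain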
EXPERIMENTAL_PARAMETERS: S. cerevisiae rad50 strain growth inhibition; at 5.0 µM (retest, dose inferred, filed as 0.5); stronger effect = higher value
This is part of a sample that, as a whole, favours compounds with a hit. Of some 79,000 tested, about 15% had one in any assay.
# maps each entry to its growth inhibition
# unit: % | format: bare number

Worked cases, growth inhibition given:
| COMPOUND | growth inhibition [%] |
| --- | --- |
| c1ccc2c(c1)nc1cc(NC3CCCCC3)c(=NC3CCCCC3)cc-1n2C1CCCCC1 | 8 |
| COC1=CC(=O)c2c(O)c3c(c(O)c2C1=O)OC1(Oc2c(cc4cc(C)oc(=O)c4c2O)CC1O)C3O (configuration not stated) | 96 |
| Cc1cc(C)c(N2C(=O)C=CC2=O)c(C)c1 | 98 |
| CC(C)(C)C1CCC(SCCO)CC1 (configuration not stated) | -22 |
| O=C1C(c2ccccc2)CS(=O)(=O)CC1c1ccccc1 (configuration not stated) | -10 |
| CN(C)CCNc1ccc2nnn3c4ccc(O)cc4c(=O)c1c23 | 32 |
| COc1ccc2c3c(c4cc(OC)c(OC)cc4c2c1)CN1CCC[C@H]1[C@@H]3O | 19 |
| CCN(CC)c1c(C(=O)/C=C/c2ccc(OC)cc2)c(-c2ccccc2)nn(C)c1=O | 17 |

### Prompt Could you share which growth inhibition value was measured for COC(=O)C1=C(NC(=O)Nc2ccc(Cl)cc2)OC(C)(C)C1c1ccc(Cl)cc1 (configuration not stated) ?
### Response 87

---

PROTOCOL_SUMMARY: NCI Yeast Anticancer Drug Screen. Data for the mlh1 rad18 strain (AID 175)
EXPERIMENTAL_PARAMETERS: S. cerevisiae mlh1 rad18 strain growth inhibition; at 50.0 µM; stronger effect = higher value
Compounds without any hit were thinned out: in the full panel of roughly 79,000, 15% have a hit.
OBSERVED_PROPERTY: growth inhibition (%)
# unit: % | format: bare number

| COMPOUND | OBSERVED_PROPERTY | READING |
| --- | --- | --- |
| COc1ccc2c(c1)CCC1OC(c3cccnc3)OC21 (stereo not drawn) | growth inhibition | 70.9 |

### Prompt Could you share which growth inhibition value was measured for S=C(N/N=C(/c1ccccc1)c1ccccn1)N1CCCCC1 ?
### Response 90.8

### Prompt Could you share which growth inhibition value was measured for CCCC(C)c1ccc(O)cc1 (stereo not drawn) ?
### Response 91.7

### Prompt Could you share which growth inhibition value was measured for OCC1OC(NC(=S)NCSCCC(F)(F)C(F)(F)C(F)(F)C(F)(F)C(F)(F)C(F)(F)F)C(O)C(O)C1O (stereo not drawn) ?
### Response 92.3

### Prompt Could you share which growth inhibition value was measured for O=C(c1ccccc1)c1ccc(O)cc1O ?
### Response 72.1

The values you see were collected from PubChem BioAssay (NCI).
